# Test system: Sprague Dawley rats
# Assay overview: Clinically observable adverse effects of cationic alkyl moieties after subcutaneous bolus in rats (Table 1)
# Assay type: in vivo, rat
# Condition context: tested at 3.0, 5.0 or 10 μmol/kg, ataxia is bolus dose limiting toxicity
For each of the compounds below, state its Ataxia** in n = 3.

Query: So what does the record say about Ataxia** in n = 3 for CCCCCCCCCCCCCCCC(=O)NCCOCCOCC(=O)NCCOCCOCC(=O)N[C@@H](CCCCN)C(=O)N[C@@H](CCCCN)C(=O)O [SEQ ID NO: 5, CH3(CH2)14(C═O)-Aeea-Aeea-KK] ?
Result: ≥5 µmol/kg

Query: What would you report for CCCCCCCCCCCCCCCC(=O)NCCOCCOCC(=O)NCCOCCOCC(=O)NCCOCCOCC(=O)N[C@H](CCCCN)C(=O)N[C@H](CCCCN)C(=O)O [SEQ ID NO: 3, CH3(CH2)14(C═O)-Aeea-Aeea-Aeea-kk] ?
Result: ≥5 µmol/kg

Query: // repeat for CCCCCCCCCCCCCCCC(=O)NCCOCCOCC(=O)NCCOCCOCC(=O)NCCOCCOCC(=O)N[C@H](CCCCN)C(=O)N[C@@H](CCCCN)C(=O)O [SEQ ID NO: 1, CH3(CH2)14(C═O)-Aeea-Aeea-Aeea-kK] and report
Result: ≥3 µmol/kg

----------
# Test system: Sprague Dawley rats
# Assay overview: Clinically observable adverse effects of cationic alkyl moieties after subcutaneous bolus in rats (Table 1)
# Type: in vivo, rat
# Condition context: tested at 3.0, 5.0 or 10 μmol/kg, ataxia is bolus dose limiting toxicity
Numbered stars: 1 amine (or outer) side, 2 acyl side, 3 side chain; on linkers, the order of the positions; unused ones are H or OH. Square brackets hold non-standard residues; d marks the D form. Peptide text beside a SMILES is read from it. * marks the point of attachment. C18 diacid = O=C(O)CCCCCCCCCCCCCCCCC(=O)*; γGlu = O=C(O)[C@H](CCC(=O)[*:2])N[*:1]; Palmitoyl = CCCCCCCCCCCCCCCC(=O)*; Dab = NCC[C@H](N)C(=O)O; Dap = NC[C@H](N)C(=O)O; AEEA = NCCOCCOCC(=O)O; GABA = NCCCC(=O)O
Please respond with reported Ataxia** in n = 3 for every item in the list.

Query: Which Ataxia** in n = 3 is reported for this compound? CCCCCCCCCCCCCCCC(=O)NCCCC(=O)NCCCC(=O)N[C@@H](CCN)C(=O)N[C@@H](CCN)C(=O)O [SEQ ID NO: 11, CH3(CH2)14(C═O)-γAbu-γAbu-Dab-Dab] ({Palmitoyl-GABA-GABA}-[Dab]-[Dab]-OH; C-terminus assumed)
Result: >10 µmol/kg

Query: Now consider CCCCCCCCCCCCCCCC(=O)NCCOCCOCC(=O)NCCOCCOCC(=O)NCCOCCOCC(=O)N[C@@H](CCN)C(=O)N[C@@H](CCN)C(=O)N[C@@H](CCN)C(=O)O [SEQ ID NO: 9] ({Palmitoyl-AEEA-AEEA-AEEA}-[Dab]-[Dab]-[Dab]-OH; C-terminus assumed) and answer again.
Result: >5 µmol/kg

Query: Please answer likewise for CCCCCCCCCCCCCCCC(=O)NCCCC(=O)NCCCC(=O)NCCCC(=O)N[C@@H](CCN)C(=O)N[C@@H](CCN)C(=O)O [SEQ ID NO: 12, CH3(CH2)14(C═O)-γAbu-γAbu-γAbu-Dab-Dab] ({Palmitoyl-GABA-GABA-GABA}-[Dab]-[Dab]-OH; C-terminus assumed)
Result: >10 µmol/kg

Query: Again, but for CCCCCCCCCCCCCCCC(=O)NCCOCCOCC(=O)NCCOCCOCC(=O)N[C@@H](CN)C(=O)N[C@@H](CCN)C(=O)O [SEQ ID NO: 13, CH3(CH2)14(C═O)-Aeea-Aeea-Dap-Dab] ({Palmitoyl-AEEA-AEEA}-[Dap]-[Dab]-OH; C-terminus assumed)
Result: >10 µmol/kg

Query: // query: CCCCCCCCCCCCCCCC(=O)NCCOCCOCC(=O)NCCOCCOCC(=O)NCCOCCOCC(=O)N[C@@H](CN)C(=O)N[C@@H](CN)C(=O)N[C@@H](CN)C(=O)N[C@@H](CN)C(=O)O [SEQ ID NO: 22] ({Palmitoyl-AEEA-AEEA-AEEA}-[Dap][Dap][Dap][Dap]-OH; C-terminus assumed)
Result: >10 µmol/kg

Query: Try NC[C@H](NC(=O)[C@H](CN)NC(=O)COCCOCCNC(=O)COCCOCCNC(=O)COCCOCCNC(=O)CCCCCCCCCCCCCCCCC(=O)O)C(=O)O [SEQ ID NO: 20] ({C18 diacid-AEEA-AEEA-AEEA}-[Dap]-[Dap]-OH; C-terminus assumed) next.
Result: >10 µmol/kg

Query: Further, for CCCCCCCCCCCCCCCC(=O)NCCOCCOCC(=O)NCCOCCOCC(=O)NCCOCCOCC(=O)N[C@@H](CCCCN)C(=O)N[C@@H](CCCCN)C(=O)O ?
Result: >5 µmol/kg

Query: Next record, please: CCCCCCCCCCCCCCCC(=O)N[C@@H](CCC(=O)NCCOCCOCC(=O)NCCOCCOCC(=O)N[C@@H](CCN)C(=O)N[C@@H](CCN)C(=O)O)C(=O)O [SEQ ID NO: 15, CH3(CH2)14(C═O)-γE-Aeea-Aeea-Dab-Dab] ({Palmitoyl-γGlu-AEEA-AEEA}-[Dab]-[Dab]-OH; C-terminus assumed)
Result: >10 µmol/kg

Query: Same thing, different compound: CCCCCCCCCCCCCCCC(=O)NCCOCCOCC(=O)NCCOCCOCC(=O)NCCOCCOCC(=O)N[C@@H](CCN)C(=O)N[C@@H](CCN)C(=O)O [SEQ ID NO: 10, CH3(CH2)14(C═O)-Aeea-Aeea-Aeea-Dab-Dab] ({Palmitoyl-AEEA-AEEA-AEEA}-[Dab]-[Dab]-OH; C-terminus assumed)
Result: >10 µmol/kg

Query: And CCCCCCCCCCCCCCCC(=O)NCCOCCOCC(=O)NCCOCCOCC(=O)NCCOCCOCC(=O)N[C@@H](CN)C(=O)N[C@@H](CN)C(=O)N[C@@H](CN)C(=O)O [SEQ ID NO: 19] ({Palmitoyl-AEEA-AEEA-AEEA}-[Dap]-[Dap]-[Dap]-OH; C-terminus assumed) ?
Result: >10 µmol/kg

Query: Query CCCCCCCCCCCCCCCC(=O)NCCOCCOCC(=O)NCCOCCOCC(=O)NCCOCCOCC(=O)N[C@@H](CCN)C(=O)N[C@@H](CCN)C(=O)N[C@@H](CCN)C(=O)N[C@@H](CCN)C(=O)O [SEQ ID NO: 8] ({Palmitoyl-AEEA-AEEA-AEEA}-[Dab][Dab][Dab][Dab]-OH; C-terminus assumed) next
Result: >5 µmol/kg

Query: Another compound to check: CCCCCCCCCCCCCCCC(=O)NCCOCCOCC(=O)NCCOCCOCC(=O)N[C@@H](CCCCN)C(=O)N[C@@H](CCCCN)C(=O)N[C@@H](CCCCN)C(=O)N[C@@H](CCCCN)C(=O)O [SEQ ID NO: 4, CH3(CH2)14(C═O)-Aeea-Aeea-KKKK] ({Palmitoyl-AEEA-AEEA}-KKKK-OH; C-terminus assumed)
Result: ≥3 µmol/kg

Query: Moving on to the next compound: CCCCCCCCCCCCCCCC(=O)N[C@@H](CCC(=O)O)C(=O)NCCOCCOCC(=O)NCCOCCOCC(=O)N[C@@H](CCN)C(=O)N[C@@H](CCN)C(=O)O [SEQ ID NO: 16, CH3(CH2)14(C═O)-E-Aeea-Aeea-Dab-Dab] (Palmitoyl-E[AEEA][AEEA][Dab][Dab]-OH; C-terminus assumed)
Result: >10 µmol/kg

Query: Let us now turn to CCCCCCCCCCCCCCCC(=O)NCCOCCOCC(=O)NCCOCCOCC(=O)NCCOCCOCC(=O)N[C@@H](CN)C(=O)N[C@@H](CN)C(=O)O [SEQ ID NO: 14, CH3(CH2)14(C═O)-Aeea-Aeea-Aeea-Dap-Dap] ({Palmitoyl-AEEA-AEEA-AEEA}-[Dap]-[Dap]-OH; C-terminus assumed)
Result: >10 µmol/kg

----------
# Tested on: Sprague Dawley rats
# Assay overview: Clinically observable adverse effects of cationic alkyl moieties after subcutaneous bolus in rats (Table 1)
# Type: in vivo, rat
# Condition context: tested at 3.0, 5.0 or 10 μmol/kg, dose at which sign was seen
Square brackets hold non-standard residues; d marks the D form. Peptide text beside a SMILES is read from it. * marks the point of attachment. Palmitoyl = CCCCCCCCCCCCCCCC(=O)*; Dab = NCC[C@H](N)C(=O)O; Dap = NC[C@H](N)C(=O)O; AEEA = NCCOCCOCC(=O)O; GABA = NCCCC(=O)O
Measurement kind: Swelling and/or Discoloration in n = 3

Query: # get_value(readout='Swelling and/or Discoloration in n = 3', item= CCCCCCCCCCCCCCCC(=O)NCCCC(=O)NCCCC(=O)N[C@@H](CCN)C(=O)N[C@@H](CCN)C(=O)O [SEQ ID NO: 11, CH3(CH2)14(C═O)-γAbu-γAbu-Dab-Dab] ({Palmitoyl-GABA-GABA}-[Dab]-[Dab]-OH; C-terminus assumed) )
Result: >10 µmol/kg

Query: Try CCCCCCCCCCCCCCCC(=O)NCCCC(=O)NCCCC(=O)NCCCC(=O)N[C@@H](CCN)C(=O)N[C@@H](CCN)C(=O)O [SEQ ID NO: 12, CH3(CH2)14(C═O)-γAbu-γAbu-γAbu-Dab-Dab] ({Palmitoyl-GABA-GABA-GABA}-[Dab]-[Dab]-OH; C-terminus assumed) next.
Result: >10 µmol/kg

Query: Moving on to the next molecule: CCCCCCCCCCCCCCCC(=O)NCCOCCOCC(=O)NCCOCCOCC(=O)NCCOCCOCC(=O)N[C@@H](CCN)C(=O)N[C@@H](CCN)C(=O)N[C@@H](CCN)C(=O)O [SEQ ID NO: 9] ({Palmitoyl-AEEA-AEEA-AEEA}-[Dab]-[Dab]-[Dab]-OH; C-terminus assumed)
Result: ≥3 µmol/kg

Query: // next record CCCCCCCCCCCCCCCC(=O)NCCOCCOCC(=O)NCCOCCOCC(=O)NCCOCCOCC(=O)N[C@H](CCCCN)C(=O)N[C@H](CCCCN)C(=O)O
Result: ≥3 µmol/kg

Query: Likewise for CCCCCCCCCCCCCCCC(=O)NCCOCCOCC(=O)NCCOCCOCC(=O)NCCOCCOCC(=O)N[C@@H](CCN)C(=O)N[C@@H](CCN)C(=O)N[C@@H](CCN)C(=O)N[C@@H](CCN)C(=O)O [SEQ ID NO: 8] ({Palmitoyl-AEEA-AEEA-AEEA}-[Dab][Dab][Dab][Dab]-OH; C-terminus assumed) ?
Result: ≥3 µmol/kg

Query: Also check CCCCCCCCCCCCCCCC(=O)NCCOCCOCC(=O)NCCOCCOCC(=O)NCCOCCOCC(=O)N[C@@H](CCN)C(=O)N[C@@H](CN)C(=O)O [SEQ ID NO: 17, CH3(CH2)14(C═O)-Aeea-Aeea-Aeea-Dab-Dap] ({Palmitoyl-AEEA-AEEA-AEEA}-[Dab]-[Dap]-OH; C-terminus assumed)
Result: >10 µmol/kg
